Form: system (ErbB2 (Homo sapiens)), quantity (pIC50), values below.
Answers are plain numbers, as −log10 of the molar value.

Consider the following illustrative entries.
I would be grateful if you could share the reported pIC50 for N#C/N=C(\NCc1ccc(-c2ccc3ncnc(Nc4ccc(OCc5cccc(F)c5)c(Cl)c4)c3c2)o1)N1CCOCC1 [Example 4] .
7.89

I would be grateful if you could share the reported pIC50 for N#C/N=C(/NCC#Cc1ccc2ncnc(Nc3ccc(OCc4cccc(F)c4)c(Cl)c3)c2c1)NCCO [Example 2] .
6.39

Parameter requested: pIC50. Apply to each item below.
1. N#C/N=C(\NCC#Cc1ccc2ncnc(Nc3ccc4c(cnn4Cc4cccc(F)c4)c3)c2c1)N1CCOCC1 [Example 9]
2. CN(C)/C(=N\C#N)NCC#Cc1ccc2ncnc(Nc3ccc(OCc4cccc(F)c4)c(Cl)c3)c2c1 [Example 1]
3. COc1cc2ncnc(Nc3ccc(OCc4ccccn4)c(Cl)c3)c2cc1OCCCN/C(=N\C#N)N(C)CCN(C)C [Example 6]

7.92
7.07
7.85

These entries and their values trace back to patent US7488823B2.
